Test: Pharmacokinetic results of the drugs in SD rats
Type: in vivo
Conditions: rat, in vivo, iv (2 mg/kg), read-out: Cl s, spp
Text: III. Pharmacokinetic Results of the Drugs in SD Rats
The entries below come with measured clearance values attached.
Kindly write the number and append the unit.

INSERT INTO results (molecule, readout_kind, endpoint_result) VALUES
  ('CONC(=O)/C(=C/n1cnc(-c2cc(C(F)(F)F)cc(C(F)(F)F)c2)n1)c1cncnc1', 'clearance', '24.2 mL/min/kg');

We next turn to a different molecule, shown below.
Query block: Could you tell me which clearance is on file for NC(=O)/C(=C/n1cnc(-c2cc(C(F)(F)F)cc(C(F)(F)F)c2)n1)c1cncnc1 [KPT-8602, reference compound] ?
Result block: 34.4 mL/min/kg

====

experiment: Pharmacokinetic results of the drugs in SD rats; format: in vivo; conditions: rat, in vivo, po (10 mg/kg)
readout.kind: Tmax (min)
Your answer should be a plain number; it is taken to be in min.

INSERT INTO results (compound, readout_units, endpoint_result) VALUES
  ('CONC(=O)/C(=C/n1cnc(-c2cc(C(F)(F)F)cc(C(F)(F)F)c2)n1)c1cncnc1', 'min', 15);

Query block: Could you tell me which Tmax is on file for NC(=O)/C(=C/n1cnc(-c2cc(C(F)(F)F)cc(C(F)(F)F)c2)n1)c1cncnc1 [KPT-8602, reference compound] ?
Result block: 60

====

assay: Pharmacokinetic results of the drugs in SD rats; format: in vivo; details: rat, in vivo, iv (2 mg/kg)
readout.kind: half-life (h)
Your answer should be a plain number; it is taken to be in h.

INSERT INTO results (compound, endpoint_result) VALUES
  ('CONC(=O)/C(=C/n1cnc(-c2cc(C(F)(F)F)cc(C(F)(F)F)c2)n1)c1cncnc1', 4.23);

Query block: Could you tell me which half-life is on file for NC(=O)/C(=C/n1cnc(-c2cc(C(F)(F)F)cc(C(F)(F)F)c2)n1)c1cncnc1 [KPT-8602, reference compound] ?
Result block: 3.04

====

test: Pharmacokinetic results of the drugs in SD rats; type: in vivo; details: rat, in vivo, po (10 mg/kg), read-out: AUC0-t
readout.kind: AUC0-t (ng·h/mL)
Your answer should be a plain number; it is taken to be in ng·h/mL.

Query block: Could you tell me which AUC0-t is on file for "CONC(=O)/C(=C/n1cnc(-c2cc(C(F)(F)F)cc(C(F)(F)F)c2)n1)c1cncnc1" ?
Result block: 3210

====

The entries below come with measured bioavailability values attached.
experiment: Pharmacokinetic results of the drugs in SD rats; type: in vivo; details: rat, in vivo, po (10 mg/kg)
Your answer should be a plain number; it is taken to be in %.

INSERT INTO results (compound, readout_units, endpoint_result) VALUES
  ('NC(=O)/C(=C/n1cnc(-c2cc(C(F)(F)F)cc(C(F)(F)F)c2)n1)c1cncnc1 [KPT-8602, reference compound]', '%', 52);

Query block: Could you tell me which bioavailability is on file for "CONC(=O)/C(=C/n1cnc(-c2cc(C(F)(F)F)cc(C(F)(F)F)c2)n1)c1cncnc1" ?
Result block: 55.9

Origin of the recorded values: patent US12723037B2
